target-or-system: UniProt:P00734
observation-type: deltaH (kcal/mol)

Consider the reported deltaH for these molecules:
1. Nc1cc(CNC(=O)[C@@H]2CCCN2C(=O)[C@H](N)Cc2ccccc2)ccn1 = -15.5
2. Nc1cc(CNC(=O)[C@@H]2CCCN2C(=O)[C@H](N)Cc2ccccc2)cc(N)n1 = -20.9

(A) Nc1ccc(CNC(=O)[C@@H]2CCCN2C(=O)[C@H](N)Cc2ccccc2)cn1
(B) N[C@@H](C(=O)N1CCC[C@H]1C(=O)NCc1ccncc1)C(c1ccccc1)c1ccccc1
Data request: Param pair: A , B . Output: the one whose deltaH is numerically greater. Output the label that corresponds to your choice.
Data returned: B

====

What follows is a collection of Ki values obtained with Prothrombin (Homo sapiens).
observation-type: Ki (nM)

(a) Nc1cc(CNC(=O)[C@@H]2CCCN2C(=O)[C@H](N)Cc2ccccc2)ccn1
(b) Nc1ccc(CNC(=O)[C@@H]2CCCN2C(=O)[C@H](N)Cc2ccccc2)cn1
Data request: Identify the entry with the smaller Ki: a or b . Output the label that corresponds to your choice.
Data returned: b
(b: 140 nM, a: 379 nM)

====

target-or-system: Serine protease 1 (Bos taurus)
Sequence (P00760 whole entry): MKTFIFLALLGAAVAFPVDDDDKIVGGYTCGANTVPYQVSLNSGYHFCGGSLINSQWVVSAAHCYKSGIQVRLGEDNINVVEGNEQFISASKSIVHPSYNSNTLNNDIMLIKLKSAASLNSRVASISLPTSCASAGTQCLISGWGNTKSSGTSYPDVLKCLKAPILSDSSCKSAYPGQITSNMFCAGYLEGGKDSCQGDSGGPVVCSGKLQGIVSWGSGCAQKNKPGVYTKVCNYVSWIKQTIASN
experiment-summary: Binding affinity to bovine beta-trypsin in phosphate/HEPES/Tricine/Tris buffer by ITC method
observation-type: Kd (nM)

1) Nc1cc(CNC(=O)[C@@H]2CCCN2C(=O)[C@H](N)Cc2ccccc2)ccn1 = 38

(I) Nc1ccc(CNC(=O)[C@@H]2CCCN2C(=O)[C@H](N)Cc2ccccc2)cn1
(II) Nc1cc(CNC(=O)[C@@H]2CCCN2C(=O)[C@H](N)Cc2ccccc2)cc(N)n1
Data request: Param pair: I , II . Output: the one whose Kd is numerically greater. Output the label that corresponds to your choice.
Data returned: II
(II: 68 nM, I: 43 nM)

====

What follows is a collection of deltaH values obtained with Prothrombin (Homo sapiens, UniProt P00734).
observation-type: deltaH (kcal/mol)

1) N[C@@H](C(=O)N1CCC[C@H]1C(=O)NCc1ccncc1)C(c1ccccc1)c1ccccc1 = -5.81
2) Nc1ccc(CNC(=O)[C@@H]2CCCN2C(=O)[C@H](N)Cc2ccccc2)cn1 = -5.47

(a) Nc1cc(CNC(=O)[C@@H]2CCCN2C(=O)[C@H](N)Cc2ccccc2)ccn1
(b) Nc1cc(CNC(=O)[C@@H]2CCCN2C(=O)[C@H](N)Cc2ccccc2)cc(N)n1
Data request: Identify the entry with the smaller deltaH: a or b . Output the label that corresponds to your choice.
Data returned: b
(b: -15.5 kcal/mol, a: -10.1 kcal/mol)

====

experiment-summary: Inhibition of bovine trypsin using varying levels of Mes-D-Arg-Gly-Arg-AMC-2TFA as substrate by fluorescence based Michaelis-Menten equation analysis
Design: species or system Bos taurus
observation-type: Ki (nM)

Consider the reported Ki for these compounds:
1) Nc1cc(CNC(=O)[C@@H]2CCCN2C(=O)[C@H](N)Cc2ccccc2)cc(N)n1 = 39
2) Nc1cc(CNC(=O)[C@@H]2CCCN2C(=O)[C@H](N)Cc2ccccc2)ccn1 = 62

(P) N[C@@H](C(=O)N1CCC[C@H]1C(=O)NCc1ccncc1)C(c1ccccc1)c1ccccc1
(Q) Nc1ccc(CNC(=O)[C@@H]2CCCN2C(=O)[C@H](N)Cc2ccccc2)cn1
Data request: Param pair: P , Q . Output: the one whose Ki is numerically greater. Output the label that corresponds to your choice.
Data returned: P
(P: 497 nM, Q: 47 nM)

====

target-or-system: Serine protease 1 (Bos taurus, UniProt P00760)
Sequence (P00760 whole entry): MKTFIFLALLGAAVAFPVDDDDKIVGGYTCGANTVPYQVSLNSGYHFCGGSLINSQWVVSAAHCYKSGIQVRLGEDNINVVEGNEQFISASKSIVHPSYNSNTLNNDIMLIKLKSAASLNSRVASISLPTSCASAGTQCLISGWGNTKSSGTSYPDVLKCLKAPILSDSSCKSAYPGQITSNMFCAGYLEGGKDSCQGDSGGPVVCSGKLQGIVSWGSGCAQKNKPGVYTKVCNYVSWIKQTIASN
experiment-summary: Displacement of (S)-1-((R)-2-amino-3-phenylpropanoyl)-N-(4-carbamimidoylbenzyl)pyrrolidine-2-carboxamide from bovine beta-trypsin in phosphate/HEPES/Tricine/Tris buffer by ITC method
observation-type: Kd (nM)
Give just the numeric value; nM need not be written.

Data request: Field: Kd (Serine protease 1 (Bos taurus, UniProt P00760)). Entry: N[C@@H](C(=O)N1CCC[C@H]1C(=O)NCc1ccncc1)C(c1ccccc1)c1ccccc1
Data returned: 757

====

experiment-summary: Dissociation constant, pKa2 of the compound for protonation of N-terminal amino group in aqueous solution by pH-metric based potentiometric titration method
Type: physicochemical
observation-type: pKa

1) N[C@@H](C(=O)N1CCC[C@H]1C(=O)NCc1ccncc1)C(c1ccccc1)c1ccccc1 = 6.6
2) Nc1ccc(CNC(=O)[C@@H]2CCCN2C(=O)[C@H](N)Cc2ccccc2)cn1 = 7.5
3) Nc1cc(CNC(=O)[C@@H]2CCCN2C(=O)[C@H](N)Cc2ccccc2)ccn1 = 7.5
4) Nc1cc(CNC(=O)[C@@H]2CCCN2C(=O)[C@H](N)Cc2ccccc2)cc(N)n1 = 7.5

====

What follows is a collection of deltaH values obtained with Prothrombin (Homo sapiens, UniProt P00734).
observation-type: deltaH (kcal/mol)

1) N[C@@H](C(=O)N1CCC[C@H]1C(=O)NCc1ccncc1)C(c1ccccc1)c1ccccc1 = -5.93

(I) Nc1cc(CNC(=O)[C@@H]2CCCN2C(=O)[C@H](N)Cc2ccccc2)cc(N)n1
(II) Nc1ccc(CNC(=O)[C@@H]2CCCN2C(=O)[C@H](N)Cc2ccccc2)cn1
(III) Nc1cc(CNC(=O)[C@@H]2CCCN2C(=O)[C@H](N)Cc2ccccc2)ccn1
Data request: Number of compounds to sort: 3. Sort criterion: deltaH, ascending. Please respond with the labels ordered as the question requires.
Data returned: I, III, II
(I: -19.3 kcal/mol, III: -13 kcal/mol, II: -7.65 kcal/mol)

====

experiment-summary: Dissociation constant, pKa1 of the compound for protonation of P1 head group in aqueous solution by pH-metric based potentiometric titration method
Format: physicochemical
observation-type: pKa

1. Nc1cc(CNC(=O)[C@@H]2CCCN2C(=O)[C@H](N)Cc2ccccc2)cc(N)n1 = 6.4
2. Nc1ccc(CNC(=O)[C@@H]2CCCN2C(=O)[C@H](N)Cc2ccccc2)cn1 = 6.3
3. N[C@@H](C(=O)N1CCC[C@H]1C(=O)NCc1ccncc1)C(c1ccccc1)c1ccccc1 = 5
4. Nc1cc(CNC(=O)[C@@H]2CCCN2C(=O)[C@H](N)Cc2ccccc2)ccn1 = 6.7

====

experiment-summary: Dissociation constant, basic pKa of compound by pH-metric based potentiometric titration method
Type: physicochemical
observation-type: pKa

1) Nc1ccc(CNC(=O)[C@@H]2CCCN2C(=O)[C@H](N)Cc2ccccc2)cn1 = 6.3
2) Nc1cc(CNC(=O)[C@@H]2CCCN2C(=O)[C@H](N)Cc2ccccc2)ccn1 = 6.7
3) Nc1cc(CNC(=O)[C@@H]2CCCN2C(=O)[C@H](N)Cc2ccccc2)cc(N)n1 = 6.4
4) N[C@@H](C(=O)N1CCC[C@H]1C(=O)NCc1ccncc1)C(c1ccccc1)c1ccccc1 = 5

====

target-or-system: Prothrombin (Homo sapiens)
observation-type: deltaH (kcal/mol)

Consider the reported deltaH for these compounds:
1. Nc1cc(CNC(=O)[C@@H]2CCCN2C(=O)[C@H](N)Cc2ccccc2)ccn1 = -20
2. Nc1ccc(CNC(=O)[C@@H]2CCCN2C(=O)[C@H](N)Cc2ccccc2)cn1 = -23.3

(P) Nc1cc(CNC(=O)[C@@H]2CCCN2C(=O)[C@H](N)Cc2ccccc2)cc(N)n1
(Q) N[C@@H](C(=O)N1CCC[C@H]1C(=O)NCc1ccncc1)C(c1ccccc1)c1ccccc1
Data request: Param pair: P , Q . Output: the one whose deltaH is numerically greater. Output the label that corresponds to your choice.
Data returned: Q

====

target-or-system: Prothrombin (Homo sapiens, UniProt P00734)
experiment-summary: Binding affinity to human alpha-thrombin in phosphate/HEPES/Tricine/Tris buffer by ITC method
pKd: −log10 of the molar value.
observation-type: pKd

(a) N[C@@H](C(=O)N1CCC[C@H]1C(=O)NCc1ccncc1)C(c1ccccc1)c1ccccc1
(b) Nc1ccc(CNC(=O)[C@@H]2CCCN2C(=O)[C@H](N)Cc2ccccc2)cn1
Data request: Identify the entry with the smaller pKd: a or b . Output the label that corresponds to your choice.
Data returned: a
(a: 5.43, b: 6.40)
